Target Or Test System: Caspase-2 (Homo sapiens)
Construct: the Caspase-2 and Caspase-3 are human recombinant active enzymes; purchased Enzo Life ALX-201-057-U100
Sequence (P42575 170-325 limits assumed): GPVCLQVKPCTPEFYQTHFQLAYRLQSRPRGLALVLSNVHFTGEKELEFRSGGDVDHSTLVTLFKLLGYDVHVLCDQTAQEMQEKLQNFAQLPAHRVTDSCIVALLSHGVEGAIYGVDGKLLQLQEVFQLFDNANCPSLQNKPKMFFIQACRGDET
Sequence (P42575 348-452 limits assumed): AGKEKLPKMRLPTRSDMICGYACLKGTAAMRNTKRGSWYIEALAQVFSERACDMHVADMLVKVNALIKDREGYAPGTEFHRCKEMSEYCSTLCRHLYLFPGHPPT
Experiment: Caspase-2 inhibition assay for irreversible inhibitors (kinact/KI, continuous method)
Type: biochemical
Conditions Used: comparison of kinact/KI ratios regarding caspase 2 and 3
Where a SMILES comes first, the peptide text is derived from it. [ ]: non-standard residue; d: D form. The star is where a group is joined. Pro(3S-CH2tBu) = CC(C)(C)C[C@H]1CCN[C@@H]1C(=O)O; X4 = CN(Cc1ccccc1)C(=O)/C=C/C(=O)N(CC(=O)O)N*; X2 = O=C(O)C[C@H](N*)C(=O)COc1c(F)cccc1F; X3 = O=C(O)CN(N*)C(=O)COc1c(F)cccc1F; Quinaldoyl = O=C(c1ccc2ccccc2n1)*

>  <Compound>
CC(C)[C@H](NC(=O)c1ccc2ccccc2n1)C(=O)N[C@@H](CC(=O)O)C(=O)N[C@H](C(=O)N1CC[C@H](CC(C)(C)C)[C@H]1C(=O)NN(CC(=O)O)C(=O)COc1c(F)cccc1F)C(C)C [Compound 4] (Quinaldoyl-VDV[Pro(3S-CH2tBu)]-X3)

>  <Selectivity for Caspase 2>
yes

$$$$
>  <Compound>
CC(C)[C@H](NC(=O)c1ccc2ccccc2n1)C(=O)N[C@@H](CC(=O)O)C(=O)N[C@H](C(=O)N[C@@H](C)C(=O)N[C@@H](CC(=O)O)C(=O)COc1c(F)cccc1F)C(C)C [Δ2Me-TRP-601, reference compound] (Quinaldoyl-VDVA-X2)

>  <Selectivity for Caspase 2>
no

$$$$
>  <Compound>
CC(C)[C@H](NC(=O)[C@H](CC(=O)O)NC(=O)C(=O)Nc1ccccc1C(C)(C)C)C(=O)N1CC[C@H](CC(C)(C)C)[C@H]1C(=O)NN(CC(=O)O)C(=O)COc1c(F)cccc1F

>  <Selectivity for Caspase 2>
yes

$$$$
>  <Compound>
CC(C)[C@H](NC(=O)c1ccc2ccccc2n1)C(=O)N[C@@H](CC(=O)O)C(=O)N[C@H](C(=O)N1CC[C@H](CC(C)(C)C)[C@H]1C(=O)NN(CC(=O)O)C(=O)/C=C/C(=O)N(C)Cc1ccccc1)C(C)C [Compound 5] (Quinaldoyl-VDV[Pro(3S-CH2tBu)]-X4)

>  <Selectivity for Caspase 2>
yes

$$$$
